# test target: wildtype K-Ras (Homo sapiens, UniProt P01116)
# Construct: made in house; host or cells: E. coli, e.g. BL21 (DE3)
# Sequence (P01116 1-188 isoform P01116-2): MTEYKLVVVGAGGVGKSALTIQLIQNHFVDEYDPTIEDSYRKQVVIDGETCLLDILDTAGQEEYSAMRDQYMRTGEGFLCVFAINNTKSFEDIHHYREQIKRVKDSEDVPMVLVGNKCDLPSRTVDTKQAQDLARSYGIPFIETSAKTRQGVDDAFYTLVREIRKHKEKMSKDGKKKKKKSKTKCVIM
# procedure text: PPI-HTRF assay, wildtype K-Ras / SOS1 interaction
# Format: biochemical
assay metric: IC50

Query: State the recorded IC50 for this entry: CN1c2nc(OC[C@@]34CCCN3C[C@H](F)C4)nc3c(F)c(-c4ccc(F)c5sc(N)c(C#N)c45)c(Cl)c(c23)OC2CN(C(=O)C3N[C@H]3C3CC3)CC21 (stereo partly shown) [compound 108]
Reply: < 5 µM

###

# test target: K-Ras G12D (Homo sapiens, UniProt P01116, G12D)
# Construct: made in house; host or cells: E. coli, e.g. BL21 (DE3)
# Sequence (P01116 1-188 isoform P01116-2 G12D): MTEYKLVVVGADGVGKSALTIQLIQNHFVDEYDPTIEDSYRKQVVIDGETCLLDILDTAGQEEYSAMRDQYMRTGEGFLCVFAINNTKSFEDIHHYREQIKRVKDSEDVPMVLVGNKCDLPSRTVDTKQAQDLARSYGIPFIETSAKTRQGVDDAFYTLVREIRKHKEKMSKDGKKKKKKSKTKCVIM
# procedure text: PPI-HTRF assay, K-Ras G12D / SOS1 interaction
# Format: biochemical
# condition context: HTRF, K-Ras G12D; read-out: PPI-HTRF-5 nM (K-Ras G12D IC50)
# From the text: This assay can be also used to assess a selective inhibition or reduction of signaling output of a mutant Ras protein relative to a wildtype, or relative to a different mutant Ras protein. For example, the equilibrium interaction of wildtype Kras or K-Ras mutant (e.g., wildtype or a mutant thereof) with SOS1 (e.g., hSOS1) can be assessed as a proxy or an indication for a subject compound's ability to bind and inhibit Ras protein. […]
assay metric: IC50

Query: Value lookup for IC50; key = CN1c2nc(OC[C@@]34CCCN3C[C@H](F)C4)nc3c(F)c(-c4ccc(F)c5sc(N)c(C#N)c45)c(Cl)c(c23)OC2CN(C=O)CC21 (stereo partly drawn)
Reply: < 5 µM

Query: # repeat for N#Cc1c(N)sc2c(F)ccc(-c3c(Cl)c4c5c(nc(OC[C@@]67CCCN6C[C@H](F)C7)nc5c3F)N3CCN(C=O)CCC3CO4)c12 (stereo partly drawn)
Reply: < 5 µM
